The reader will find reported MBC99 Day 7 (CFU Assay) MBC99 Rel to RMP values listed item by item below.
- System: M. tuberculosis H37Rv
- assay_summary: Minimum bactericidal concentration (MBC, CFU Assay)
- Type: cell-based, Mycobacterium tuberculosis
- conditions: CFU Assay MBC99 relative to rifampin (RMP = 1)
// keep it numeric: no unit symbol after the value

*Q* Which MBC99 Day 7 (CFU Assay) MBC99 Rel to RMP value is on record for CO[C@H]1/C=C/O[C@@]2(C)Oc3c(C)c(O)c4c(=O)c(c5oc6cccc(OCCCCN7CCN(C)CC7)c6nc-5c4c3C2=O)NC(=O)/C(C)=C\C=C\[C@H](C)[C@H](O)[C@@H](C)[C@@H](O)[C@@H](C)[C@H](OC(C)=O)[C@@H]1C ?
*A* 0.77

*Q* Which MBC99 Day 7 (CFU Assay) MBC99 Rel to RMP value is on record for CO[C@H]1/C=C/O[C@@]2(C)Oc3c(C)c(O)c4c(O)c(c(/C=N/N5CCN(C)CC5)c(O)c4c3C2=O)NC(=O)/C(C)=C\C=C\[C@H](C)[C@H](O)[C@@H](C)[C@@H](O)[C@@H](C)[C@H](OC(C)=O)[C@@H]1C [RMP, rifampin, reference compound] ?
*A* 1

*Q* Which MBC99 Day 7 (CFU Assay) MBC99 Rel to RMP value is on record for CO[C@H]1/C=C/O[C@@]2(C)Oc3c(C)c(O)c4c(=O)c(c5oc6cc(N7CCN(CC(C)C)CC7)cc(OCCCCN7CCN(C(=O)Cn8ccnc8)CC7)c6nc-5c4c3C2=O)NC(=O)/C(C)=C\C=C\[C@H](C)[C@H](O)[C@@H](C)[C@@H](O)[C@@H](C)[C@H](OC(C)=O)[C@@H]1C ?
*A* 0.23
